Method Notes: chemical genetic growth profiling, strain panel (AID 1159580);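 further: tested at 20 µM; growth read once vehicle control cultures reached saturation at 30 °C; 1 = growth at the plate median or of vehicle wells; lower values mean less growth of the strain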
Condition Details: S. cerevisiae deletion strains, growth OD, locus YNL250W, strain rad50, active compounds read low
The campaign covered roughly 5,500 compounds. About 2,000 (36%) were called active. Another 18% or so got no clear call; they are omitted. Some of the results follow.
Item-by-item account of normalized growth
// return just the number, without any unit appended

Lookup: Fill in: normalized growth of C=CCc1ccc2c(c1)OCO2 is ___
Found: 1.01

Lookup: Fill in: normalized growth of COc1ccc(-c2coc3c(OC)c(OC)cc(O)c3c2=O)cc1 is ___
Found: 0.997

Lookup: Fill in: normalized growth of COc1ccc(-c2coc3c(OC)c(OC)ccc3c2=O)cc1 is ___
Found: 1.03

Lookup: Fill in: normalized growth of COC1C(O)C(O)C(O)[C@@H](O)C1O (some centres undefined) is ___
Found: 1.02

Lookup: Fill in: normalized growth of OC(CCN1CCCCC1)(c1ccccc1)c1ccccc1 is ___
Found: 1

Lookup: Fill in: normalized growth of C[N+](C)(C)CCOP(=O)([O-])OP(=O)(O)OC[C@H]1OC(n2ccc(N)nc2=O)[C@H](O)[C@@H]1O (some centres undefined) is ___
Found: 1
